Test system: Fibroblast
PROCEDURE DETAILS: Incucyte cell viability with human fibroblast; note: unitless GR value; below 1 slowed growth and below 0 cell loss
Type: toxicity, cell-based
RUN PARAMETERS: 18 h, 10 µM, compound concentration 10 uM, replicate number 2, timepoint 18 hours
PROPERTY NAME: Growth Rate

C[C@@](Cc1c[nH]c2ccccc12)(NC(=O)Nc1ccc([N+](=O)[O-])cc1)C(=O)NCC1(c2ccccn2)CCCCC1 = -0.53
CCc1cc2cc(NS(=O)(=O)c3ccc(C#N)cc3)ccc2n(CC)c1=O = 0.13
COc1cc(C(=O)N2CC[C@@H](O)[C@@H](N)C2)cc2nc(-c3cc4ccccc4n3CC3CC3)n(C)c12.Cl = -0.01
C[C@@H]1CN(Cc2ccc(F)cc2)CCN1C(=O)COc1ccc(Cl)cc1NC(N)=O [BX 471 FREE BASE] = 0.85
O=c1c2cccn2c2ccccc2n1CCCN1CCC(c2ccc(Cl)cc2)CC1 = -0.28
CCC(=O)NCC[C@@H]1CCc2ccc3c(c21)CCO3 [RAMELTEON] = 0.83
O=C(N[C@@H]1CC[C@@H](c2cccc(F)c2F)CN(CC(F)(F)F)C1=O)N1CCC(n2c(=O)[nH]c3ncccc32)CC1 [TELCAGEPANT] = 0.66
CCc1nnc(NS(=O)(=O)c2ccc(NC(=S)NC(=O)/C=C/c3ccc(F)cc3)cc2)s1 = 0.53
CC(=O)c1ccc2c(c1)[C@@H]1C=CC[C@@H]1[C@H](c1cc3c(cc1Br)OCO3)N2 = -0.23

----------
Test system: HEK-293T
PROCEDURE DETAILS: Incucyte cell viability with HEK293T; note: unitless GR value; below 1 slowed growth and below 0 cell loss
Format: toxicity, cell-based
RUN PARAMETERS: human, 0 h, 10 µM, compound concentration 10 uM, replicate number 2, timepoint 0 hours
PROPERTY NAME: Growth Rate

CCCN(CCc1cccs1)[C@H]1CCc2c(O)cccc2C1 [ROTIGOTINE] = -1
CO[C@H]1CNC[C@@H](OCC2CCC(F)(F)CC2)[C@@H]1Nc1ncc(-c2cncc(C)c2)c2cc(C)c(=O)[nH]c12 = 0.51
CN(c1ncccc1CNc1ccnc(-c2nc3c(F)c(Cl)ccc3[nH]2)n1)S(C)(=O)=O = 0.48
Cc1cc(CN)cc(C)c1-c1ncn(C)c1-c1ccnc2cc(F)ccc12 = 0.31
CC(C)Oc1ccc(-c2c[nH]cc2CN(C)CCO)cc1 = 0.6
Cc1c(Cc2ccc3ccccc3n2)c2cc(F)ccc2n1CC(=O)O [TIMAPIPRANT] = 0.4
Cc1sc2c(c1C)C(c1ccc(Cl)cc1)=N[C@@H](CC(=O)NCCCCCCCCNC(=O)COc1cccc3c1C(=O)N(C1CCC(=O)NC1=O)C3=O)c1nnc(C)n1-2 (some centres undefined) = 0.68
COC[C@@H](CC(C)C)NC1=N/C(=C\c2ccc3ncsc3c2)C(=O)N1C = -0.15
O=C(CCCc1ccccc1)Nc1nc2ccccc2c(=O)s1 = 0.98

----------
Tested on: Fibroblast
PROCEDURE DETAILS: Incucyte cell viability with human fibroblast; note: unitless GR value; below 1 slowed growth and below 0 cell loss
Type: toxicity, cell-based
RUN PARAMETERS: 0 h, 10 µM, compound concentration 10 uM, replicate number 2, timepoint 0 hours
PROPERTY NAME: Growth Rate

CC1=C(C)C(=O)C(C(C)(C)CC(=O)N(CCCCSC[C@H]2O[C@@H](n3cnc4c(N)ncnc43)[C@@H]3OC(C)(C)O[C@@H]32)Cc2cccc(-c3ccc(Cl)cc3)c2)=C(C)C1=O = 0.08
Nc1nc(CC(=O)Nc2ccc(CCNC[C@H](O)c3ccccc3)cc2)cs1 = 0.45
N[C@@]1(C(=O)O)CO[C@H]2[C@H](C(=O)O)[C@H]21 = 0.44
CCCCC[C@H](O)/C=C/[C@H]1[C@H](O)CC(=O)[C@@H]1CCCCCCC(=O)O = 0.17

----------
System: HEK-293T
PROCEDURE DETAILS: Incucyte cell viability with HEK293T; note: unitless GR value; below 1 slowed growth and below 0 cell loss
Format: toxicity, cell-based
RUN PARAMETERS: human, 18 h, 10 µM, compound concentration 10 uM, replicate number 1, timepoint 18 hours
PROPERTY NAME: Growth Rate

O=C(O)CCCCCC[C@H]1C(=O)NC(=O)N1CCC(O)C1CCCCC1 (stereo not given in full) = 0.88
CCOC(=O)c1c(/C(C#N)=C\N)c2ccc(Cl)c(Cl)c2n1C = 0.9
O=c1ccn([C@@H]2O[C@H](COP(=O)([O-])OP(=O)([O-])OP(=O)([O-])O)[C@@H](O)[C@H]2O)c(=O)[nH]1.[Na+].[Na+].[Na+] = 0.92
Oc1c(CN2CCN(c3ccccn3)CC2)cc(Cl)c2cccnc12 = 0.11
COCCN1CCC(c2cc(CN(C)C(=O)c3cccc(Oc4ccccc4)c3)ccn2)CC1 = 0.81

----------
Tested on: HEK-293T
PROCEDURE DETAILS: Incucyte cell viability with HEK293T; note: unitless GR value; below 1 slowed growth and below 0 cell loss
Assay type: toxicity, cell-based
RUN PARAMETERS: human, 12 h, 10 µM, compound concentration 10 uM, replicate number 2, timepoint 12 hours
This section presents compounds with their documented Growth Rate values.
PROPERTY NAME: Growth Rate

COc1ccc2c(c1)C(C(=O)N(Cc1ccc(N(C)C)cc1)c1ccc(C(C)C)cc1)CCC2.Cl (stereo not drawn) = 0.46
COCCCN1CCC(NC(=O)c2cc(Cl)c(N)c3c2OCC3)CC1 [PRUCALOPRIDE] = 0.99
CC(C)c1c(NC(=O)Nc2ccc(Cl)cc2)c(=O)n(-c2ccccc2)n1C = 0.96
Cc1cc(CN)cc(C)c1-c1ncn(C)c1-c1ccnc2cc(F)ccc12 = 0.96
CC[C@@H](C)Nc1nc(C)nc2c(-c3ccc(OC)nc3C)c(C)nn12 = 0.9
COC(=O)N1CCN(C(=O)Cc2ccc(Cl)c(Cl)c2)C(CN2CCCC2)C1.O=C(O)/C=C/C(=O)O (stereo not drawn) = 0.72
CC[S+]([O-])c1nc(-c2cccc(OCc3ccccc3)c2)cc(C(F)(F)F)n1 (stereo not drawn) = -0.65
CCS(=O)(=O)Nc1ccc(Oc2ccc(F)cc2F)c(-c2cn(C)c(=O)c3[nH]ccc23)c1 = 0.78
CN[C@@H](C)C(=O)N[C@H]1CCCC[C@H]2CC[C@@H](C(=O)N[C@@H](c3ccccc3)c3cn(CCCCc4ccc(CCCCn5cc([C@@H](NC(=O)[C@@H]6CC[C@@H]7CCCC[C@H](NC(=O)[C@H](C)NC)C(=O)N76)c6ccccc6)nn5)cc4)nn3)N2C1=O = 0.75
C[C@@H](OC[C@@]1(c2ccccc2)CC[C@]2(CCC(=O)N2)CN1)c1cc(C(F)(F)F)cc(C(F)(F)F)c1 = 0.57
CS(=O)(=O)c1ccc(C(=O)Nc2ccc(Cl)c(-c3ccccn3)c2)c(Cl)c1 = 0.84
O=C(NC[C@@H]1[C@H]2CN(C(=O)OCc3cc(C(F)(F)F)cc(C(F)(F)F)c3)C[C@@H]12)c1ccc2[nH]nnc2c1 = 0.92
O=C1NC(NC23CC4CC(CC(C4)C2)C3)=N/C1=C\c1ccc2ncsc2c1 = 0.24
CN(C(=O)/C=C/c1ccoc1)[C@@H]1CC[C@@]2(O)[C@H]3Cc4ccc(O)c5c4[C@@]2(CCN3CC2CC2)[C@H]1O5 = 0.91
C[C@@](Cc1c[nH]c2ccccc12)(NC(=O)Nc1ccc([N+](=O)[O-])cc1)C(=O)NCC1(c2ccccn2)CCCCC1 = -0.14
Cc1ccccc1C#Cc1ccc(CCC(=O)O)cc1 = 0.75
CCCCNNC(=O)c1ccc(Br)cc1 = 0.77
CC(C)Oc1ccc(-c2nc(-c3cccc4c3CC[C@@H]4NCCO)no2)cc1C#N = -0.34

----------
This section presents molecules with their documented Growth Rate values.
System: U2OS
PROCEDURE DETAILS: Incucyte cell viability with U2OS; note: unitless GR value; below 1 slowed growth and below 0 cell loss
Format: toxicity, cell-based
RUN PARAMETERS: human, 12 h, 10 µM, compound concentration 10 uM, replicate number 2, timepoint 12 hours
PROPERTY NAME: Growth Rate

COc1ccc2[nH]c(I)c(CCNC(C)=O)c2c1 [IODOMELATONIN] = 0.99
OCCCNc1cc(-c2ccnc(Nc3cccc(Cl)c3)n2)ccn1 = 0.56
COc1cc(OC2CCN(C(C)=O)CC2)ccc1C(=O)N1CCC(N2C(=O)OCc3ccccc32)CC1 = 0.77
Oc1c(CN2CCN(c3ccccn3)CC2)cc(Cl)c2cccnc12 = 0.21
COc1cc2nc(N(C)CCCNC(=O)C3CCCO3)nc(N)c2cc1OC.Cl (centres undefined) [ALFUZOSIN HYDROCHLORIDE] = 0.97
CC(C)COc1ccc(CNC(=O)N(Cc2ccc(F)cc2)C2CCN(C)CC2)cc1 [PIMAVANSERIN] = 0.31
O=C(Nc1cc(-c2ccccc2)nn1-c1ccccc1F)c1ccc([N+](=O)[O-])cc1 = 0.84
OC[C@H]1O[C@@H](n2cnc3c(NC4CCCC4)ncnc32)[C@H](O)[C@@H]1O [N6-CYCLOPENTYLADENOSINE] = 0.94
CN1CCN2c3ncccc3Cc3ccccc3C2C1 (centres undefined) [MIRTAZAPINE] = 0.97
